Field: pIC50. Provide a value for each of the compounds that follow.
pIC50: −log10 of the molar value.

Q: Notebook: pull reported pIC50 for PIKFYVE (Homo sapiens (Human)), entry CC(C)(C)c1ccn(-c2cc(N3CCOCC3)n3nc(-c4ccncc4)cc3n2)n1
A: < 6.00

Q: Notebook: pull reported pIC50 for PIKFYVE (Homo sapiens (Human)), entry Fc1ccccc1-c1ccn(-c2cc(N3CCOCC3)n3nc(-c4ccncc4)cc3n2)n1
A: > 7.30

Q: Notebook: pull reported pIC50 for PIKFYVE (Homo sapiens (Human)), entry Fc1ccc(-c2ccn(-c3cc(N4CCOCC4)n4nc(-c5ccncc5)cc4n3)n2)cc1
A: > 7.30

Q: Notebook: pull reported pIC50 for PIKFYVE (Homo sapiens (Human)), entry COc1cccc(-c2ccn(-c3cc(N4CCOCC4)n4nc(-c5ccncc5)cc4n3)n2)c1
A: > 7.30

Q: Notebook: pull reported pIC50 for PIKFYVE (Homo sapiens (Human)), entry Cc1ccccc1-c1ccn(-c2cc(N3CCOCC3)n3nc(-c4ccncc4)cc3n2)n1
A: 6.00 to 7.30

Q: Notebook: pull reported pIC50 for PIKFYVE (Homo sapiens (Human)), entry Cc1cccc(-c2ccn(-c3cc(N4CCOCC4)n4nc(-c5ccncc5)cc4n3)n2)c1
A: > 7.30

Q: Notebook: pull reported pIC50 for PIKFYVE (Homo sapiens (Human)), entry FC(F)(F)c1ccc(-c2ccn(-c3cc(N4CCOCC4)n4nc(-c5ccncc5)cc4n3)n2)cc1
A: < 6.00

Q: Notebook: pull reported pIC50 for PIKFYVE (Homo sapiens (Human)), entry N#Cc1cccc(-c2ccn(-c3cc(N4CCOCC4)n4nc(-c5ccncc5)cc4n3)n2)c1
A: > 7.30

Q: Notebook: pull reported pIC50 for PIKFYVE (Homo sapiens (Human)), entry Fc1cccc(-c2ccn(-c3cc(N4CCOCC4)n4nc(-c5ccncc5)cc4n3)n2)c1
A: > 7.30

---

- Assay System: PIKFYVE (Homo sapiens (Human))
- Assay Remarks: KINOMEScan Kinase Assay, PIKFYVE binding
- Run Parameters: KINOMEScan Kinase Assay
Metric: Kd

Q: Fill in the blank: the reported Kd of Cc1cccc(-c2ccn(-c3cc(N4CCOCC4)n4nc(-c5ccncc5)cc4n3)n2)c1 [Ex. 17] is ____.
A: < 1 nM

Q: Fill in the blank: the reported Kd of COc1cccc(-c2ccn(-c3cc(N4CCOCC4)n4nc(-c5ccncc5)cc4n3)n2)c1 [Ex. 15] is ____.
A: 1 to 5 nM

Q: Fill in the blank: the reported Kd of COc1cccc(-c2ccn(-c3cc(N4CCOC[C@H]4C)n4nc(-c5ccncc5)cc4n3)n2)c1 [Ex. 14] is ____.
A: 5 to 10 nM

Q: Fill in the blank: the reported Kd of COc1cccc(-c2ccn(-c3cc(N4CCO[C@H](C)C4)n4nc(-c5ccncc5)cc4n3)n2)c1 [Ex. 11] is ____.
A: 5 to 10 nM

---

- Assay System: PIKFYVE (Homo sapiens (Human), UniProt Q9Y2I7)
- Sequence (Q9Y2I7 whole entry): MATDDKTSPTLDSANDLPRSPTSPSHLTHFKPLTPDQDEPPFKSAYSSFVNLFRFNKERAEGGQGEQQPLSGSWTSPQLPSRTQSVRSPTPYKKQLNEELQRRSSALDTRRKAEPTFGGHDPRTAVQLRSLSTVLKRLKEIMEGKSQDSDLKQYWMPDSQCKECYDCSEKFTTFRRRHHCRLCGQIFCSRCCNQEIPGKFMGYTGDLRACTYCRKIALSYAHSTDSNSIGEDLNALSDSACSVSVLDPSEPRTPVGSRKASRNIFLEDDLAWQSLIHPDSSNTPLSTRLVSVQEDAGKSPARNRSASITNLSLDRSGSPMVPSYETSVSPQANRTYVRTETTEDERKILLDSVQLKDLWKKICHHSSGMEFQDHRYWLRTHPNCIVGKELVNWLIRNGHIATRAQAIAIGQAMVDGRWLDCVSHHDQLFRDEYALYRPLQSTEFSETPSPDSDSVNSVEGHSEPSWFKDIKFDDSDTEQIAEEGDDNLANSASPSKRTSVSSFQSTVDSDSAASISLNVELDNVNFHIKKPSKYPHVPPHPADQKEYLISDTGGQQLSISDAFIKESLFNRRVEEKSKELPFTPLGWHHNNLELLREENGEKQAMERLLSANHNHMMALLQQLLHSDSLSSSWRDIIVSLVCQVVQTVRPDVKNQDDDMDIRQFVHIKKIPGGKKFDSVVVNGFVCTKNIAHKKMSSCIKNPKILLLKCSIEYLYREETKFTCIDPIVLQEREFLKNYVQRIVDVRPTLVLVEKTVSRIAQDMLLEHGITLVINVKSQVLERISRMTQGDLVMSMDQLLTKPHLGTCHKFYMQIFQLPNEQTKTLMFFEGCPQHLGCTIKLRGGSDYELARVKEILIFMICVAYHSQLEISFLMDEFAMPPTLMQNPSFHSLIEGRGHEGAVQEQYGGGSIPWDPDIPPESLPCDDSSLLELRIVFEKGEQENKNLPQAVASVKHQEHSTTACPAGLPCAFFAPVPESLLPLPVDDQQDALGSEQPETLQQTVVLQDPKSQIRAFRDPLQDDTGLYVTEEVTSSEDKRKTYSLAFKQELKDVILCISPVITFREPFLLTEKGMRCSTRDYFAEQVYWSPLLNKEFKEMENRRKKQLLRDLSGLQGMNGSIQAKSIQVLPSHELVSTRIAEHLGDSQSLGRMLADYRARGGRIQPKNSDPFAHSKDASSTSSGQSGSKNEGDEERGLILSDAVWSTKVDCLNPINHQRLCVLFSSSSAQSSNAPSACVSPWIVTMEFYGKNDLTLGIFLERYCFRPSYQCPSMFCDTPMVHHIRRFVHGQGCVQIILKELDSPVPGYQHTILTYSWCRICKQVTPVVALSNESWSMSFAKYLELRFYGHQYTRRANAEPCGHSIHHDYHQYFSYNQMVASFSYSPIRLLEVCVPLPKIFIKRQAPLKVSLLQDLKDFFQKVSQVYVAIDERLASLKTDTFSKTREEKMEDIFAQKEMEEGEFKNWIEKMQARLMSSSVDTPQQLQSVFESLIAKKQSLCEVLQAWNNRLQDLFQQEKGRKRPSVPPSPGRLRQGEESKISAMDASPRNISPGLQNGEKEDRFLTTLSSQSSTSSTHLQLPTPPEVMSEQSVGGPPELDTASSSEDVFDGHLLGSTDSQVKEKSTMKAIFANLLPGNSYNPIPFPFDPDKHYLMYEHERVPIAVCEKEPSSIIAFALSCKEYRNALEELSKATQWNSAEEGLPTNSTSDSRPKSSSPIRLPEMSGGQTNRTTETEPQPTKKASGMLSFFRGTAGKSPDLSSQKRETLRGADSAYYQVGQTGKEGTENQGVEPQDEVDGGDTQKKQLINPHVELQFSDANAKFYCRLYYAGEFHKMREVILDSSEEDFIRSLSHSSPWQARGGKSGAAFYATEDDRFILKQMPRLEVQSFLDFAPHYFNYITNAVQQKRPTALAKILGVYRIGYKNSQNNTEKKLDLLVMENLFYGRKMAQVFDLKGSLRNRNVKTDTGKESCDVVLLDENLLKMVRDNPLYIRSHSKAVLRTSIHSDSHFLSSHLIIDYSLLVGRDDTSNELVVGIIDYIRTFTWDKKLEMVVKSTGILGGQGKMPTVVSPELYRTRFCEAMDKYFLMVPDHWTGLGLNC
- Assay Remarks: KINOMEScan Kinase Assay, PIKFYVE binding
- Run Parameters: read-out: % Inhib. (50 nM)
Field: inhibition at 0.05 µM. Provide a value for each of the compounds that follow.

Q: Fill in the blank: the reported inhibition at 0.05 µM of FC(F)(F)c1ccc(-c2ccn(-c3cc(N4CCOCC4)n4nc(-c5ccncc5)cc4n3)n2)cc1 [Ex. 10] is ____.
A: < 50%

Q: Fill in the blank: the reported inhibition at 0.05 µM of Cc1cccc(-c2ccn(-c3cc(N4CCOCC4)n4nc(C5=CCN(C(=O)OC(C)(C)C)CC5)cc4n3)n2)c1 [Ex. 26] is ____.
A: 80 to 100%

Q: Fill in the blank: the reported inhibition at 0.05 µM of Brc1cccc(-c2ccn(-c3cc(N4CCOCC4)n4nc(-c5ccncc5)cc4n3)n2)c1 [Ex. 3] is ____.
A: 80 to 100%

Q: Fill in the blank: the reported inhibition at 0.05 µM of CC(C)(C)c1ccn(-c2cc(N3CCOCC3)n3nc(-c4ccncc4)cc3n2)n1 [Ex. 5] is ____.
A: < 50%

Entry source: patent US20240018151A1
